ASSAY TEXT: Equilibrium solubility evaluation in lipids and cosolvents
Assay type: physicochemical
ASSAY CONDITIONS: 37 °C, organic solvent or mixture, thermodynamic from solid; in Transcutol® HP; 37±0.5° C., 72 h; read-out: solubility of PTX

{"SMI": "CC(=O)O[C@H]1C(=O)[C@@]2(C)[C@H]([C@H](OC(=O)c3ccccc3)[C@]3(O)C[C@H](OC(=O)[C@H](O)[C@@H](NC(=O)c4ccccc4)c4ccccc4)C(C)=C1C3(C)C)[C@]1(OC(C)=O)CO[C@@H]1C[C@@H]2O", "solubility at 72 h": "235 mg/mL"}
